Measurement Description: Short term HFD mouse model: plasma and liver exposure
Format: in vivo, mice (C57BL/6J)
Particulars: HFD mice, three oral doses of 10 mg/kg, 4 h after last dose
Protocol: Short Term HFD Mouse Model: The in vivo transcriptional regulation of several LXR target genes by LXR modulators was assessed in mice. For this, C57BL/6J were purchased from Elevage Janvier (Rennes, France) at the age of 8 weeks. After an acclimation period of two weeks, animals were preferred on a high fat diet (HFD) (Ssniff Spezialdiäten GmbH, Germany, Surwit EF D12330 mod, Cat. No. E15771-34), with 60 kcal % from fat plus 1% (w/w) extra cholesterol (Sigma-Aldrich, St. Louis, Mo.) for 5 days. […]
Endpoint: liver exposure 4 h

>>> result("N#Cc1cccc(C#N)c1-c1c(-c2cccc(-c3ccc(C(=O)NCC(=O)O)cc3Cl)c2)n(S(=O)(=O)c2ccc(C(F)F)cc2)c2ccc(F)cc12")
"C (1 μM to ≤10 μM)"
>>> result("N#Cc1cccc(C#N)c1-c1c(-c2cccc(-c3cc(F)c(C(=O)O)cc3Cl)c2)n(S(=O)(=O)c2ccc(C(F)F)cc2)c2ccc(F)cc12")
"C (1 μM to ≤10 μM)"
>>> result("CC(=O)NS(=O)(=O)c1ccc(-c2cccc(-c3c(-c4c(C#N)cccc4C#N)c4cc(F)ccc4n3S(=O)(=O)c3ccc(C(F)F)cc3)c2)c(Cl)c1")
"B (300 nM to ≤1 μM)"
>>> result("N#Cc1cccc(C#N)c1-c1c(-c2cccc(-c3ccc(C(=O)NCCS(=O)(=O)O)cc3Cl)c2)n(S(=O)(=O)c2ccc(C(F)F)cc2)c2ccc(F)cc12")
"B (300 nM to ≤1 μM)"
>>> result("N#Cc1cccc(C#N)c1-c1c(-c2cccc(-c3ccc(C(=O)O)cc3F)c2)n(S(=O)(=O)c2ccc(C(F)F)cc2)c2ccc(F)cc12")
"C (1 μM to ≤10 μM)"
>>> result("N#Cc1cccc(C#N)c1-c1c(-c2cccc(-c3ccc(C(=O)O)cc3Cl)c2)n(S(=O)(=O)C2CCC(F)(F)CC2)c2ccc(F)cc12")
"C (1 μM to ≤10 μM)"

* * *

Target Entity: LXRβ ligand-binding domain (Homo sapiens, UniProt P55055, DUP175-175)
Construct: amino acids 156-461; NP009052; made in house; host or cells: E. coli
Sequence (P55055 with tags, fused parts or gaps DUP175-175 limits assumed): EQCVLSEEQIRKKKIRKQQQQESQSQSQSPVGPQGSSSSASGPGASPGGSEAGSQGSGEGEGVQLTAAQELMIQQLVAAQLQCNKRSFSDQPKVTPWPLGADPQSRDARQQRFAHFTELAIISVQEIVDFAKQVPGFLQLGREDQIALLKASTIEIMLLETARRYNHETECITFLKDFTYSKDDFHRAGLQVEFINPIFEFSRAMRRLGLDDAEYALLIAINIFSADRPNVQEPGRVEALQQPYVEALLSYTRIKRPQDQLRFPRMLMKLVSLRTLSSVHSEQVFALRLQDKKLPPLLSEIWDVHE
Measurement Description: TR-FRETβ activity assay (NCoA3 coactivator peptide recruitment)
Format: biochemical
Particulars: TR-FRET, 1 μM 24(S)-25-epoxycholesterol prestimulation; read-out: FRETβ (EC50 range)
pEC50: −log10 of the molar value.
Known pEC50 of a selection of compounds
Endpoint: pEC50

>>> result("COc1ccc(S(=O)(=O)n2c(-c3ccccc3)c(C3=C(C#N)c4ccccc4CC3)c3ccccc32)cc1 [20/19]")
"< 5.00"
>>> result("N#Cc1sccc1-c1c(-c2cccc(-c3cc(F)c(C(=O)O)cc3Cl)c2)n(S(=O)(=O)c2ccc(CF)cc2)c2ccc(F)cc12 [11/7]")
"> 7.00"
>>> result("Cc1ccc(S(=O)(=O)n2c(-c3cccc(-c4ccc(CN(C)C)cc4Cl)c3)c(-c3ccsc3C#N)c3cc(F)ccc32)cc1 [Example 2]")
"6.00 to 7.00"
>>> result("N#Cc1sccc1-c1c(-c2ccccc2)n(S(=O)(=O)c2ccc(OCC(=O)O)cc2)c2ccccc12 [Example 27]")
"5.00 to 6.00"
>>> result("Cc1ccc(S(=O)(=O)n2c(-c3cccc(N4CC(C(=O)O)C4)c3)c(-c3ccsc3C=O)c3cc(F)ccc32)cc1 [3/5]")
"6.00 to 7.00"
>>> result("Cc1ccc(S(=O)(=O)n2c(-c3cccc(-c4ccc(C(=O)NS(C)(=O)=O)cc4Cl)c3)c(-c3ccsc3C#N)c3cc(F)ccc32)cc1 [32/4]")
"> 7.00"
>>> result("N#Cc1sccc1-c1c(-c2cccc(OCC(=O)O)c2)n(S(=O)(=O)c2ccc(Cl)cc2)c2ccccc12 [3/51]")
"5.00 to 6.00"
>>> result("N#Cc1sccc1-c1c(-c2ccc(C3CC3C(=O)O)s2)n(S(=O)(=O)c2ccc(Cl)cc2)c2ccccc12 (centres unmarked) [30/8]")
"5.00 to 6.00"
>>> result("O=C(O)c1sccc1-c1c(-c2cccs2)n(S(=O)(=O)c2ccc(Cl)cc2)c2ccccc12 [Example 21]")
"< 5.00"
>>> result("Cc1ccc(S(=O)(=O)n2c(-c3cccc(N4CC(C(=O)O)C4)c3)c(-c3ccsc3C#N)c3cc(C)ccc32)cc1 [3/46]")
"6.00 to 7.00"
>>> result("N#Cc1cccc(C#N)c1-c1c(-c2cccc(-c3ccc(C(=O)O)cc3Cl)c2)n(S(=O)(=O)C2CCC(F)(F)CC2)c2ccc(F)cc12 [11/63]")
"6.00 to 7.00"
>>> result("COc1ccc(S(=O)(=O)n2c(-c3cccs3)c(-c3ccsc3C#N)c3ccccc32)cc1 [20/14]")
"6.00 to 7.00"
>>> result("Cc1ccc(S(=O)(=O)n2c(-c3cccc(N4CC(C)(C(=O)O)C4)c3)c(-c3ccsc3C#N)c3cc(F)ccc32)cc1 [3/37]")
"6.00 to 7.00"
>>> result("Cc1ccc(S(=O)(=O)n2c(-c3cccc(C4CC4C(=O)O)c3)c(-c3ccsc3C#N)c3cccnc32)cc1 (centres unmarked) [4/2]")
"5.00 to 6.00"

Just for reference, patent US11618747B2 is where these values come from.
